Test system: MALME-3M melanoma
procedure.summary: NCI-60 one-dose screen, 48 h
assay.setup: 10 µM unless noted
This is part of a sample that, as a whole, favours compounds with a hit. Of some 83,000 tested, about 20% had one in any assay. The source made the active and inactive calls. The calls were made as follows: active = growth percent below 10; inactive = the rest.
Please answer using one outcome listed in active, inactive

-- ask Dear colleague, could you share the recorded outcome for COc1ccc(-c2nc(-c3ccccc3)c(-c3ccccc3)n2C2CC2)cc1OC1CCCCC1 when you have a moment?
-- reply inactive

-- ask Dear colleague, could you share the recorded outcome for COc1cc(/C=C/C(=O)c2ccc(NC(=O)CN3CCN(c4cc5c(cc4F)c(=O)c(C(=O)O)cn5C4CC4)CC3)cc2)cc(OC)c1OC when you have a moment?
-- reply inactive

-- ask Dear colleague, could you share the recorded outcome for Oc1ccc(N=Cc2ccccc2)cc1 when you have a moment?
-- reply inactive

-- ask Dear colleague, could you share the recorded outcome for O=S(=O)(NCCCNc1nccc(-c2c(-c3ccc(F)c(O)c3)nc3sccn23)n1)c1ccc(Cl)cc1 when you have a moment?
-- reply active

-- ask Dear colleague, could you share the recorded outcome for CN(C)C1CCC(NC2=CC(=O)C=CC2=O)CC1 (stereo unspecified) when you have a moment?
-- reply inactive

-- ask Dear colleague, could you share the recorded outcome for O=C1CCCCN1CCCCC#Cc1ccccc1C#Cc1ccccn1 when you have a moment?
-- reply inactive

-- ask Dear colleague, could you share the recorded outcome for CCCCCCCCCCCCCCCCCCOc1cccc(CCOP(=O)(O)OCC[N+](C)(C)C)c1 when you have a moment?
-- reply inactive

-- ask Dear colleague, could you share the recorded outcome for CC(C)[C@H](CO)Nc1nc(Nc2ccc(C(=O)NCCNS(=O)(=O)c3cccc4c(N(C)C)cccc34)c(Cl)c2)c2ncn(C(C)C)c2n1 when you have a moment?
-- reply inactive

-- ask Dear colleague, could you share the recorded outcome for COC(=O)CC/C(C)=N\Nc1ccc([N+](=O)[O-])cc1 when you have a moment?
-- reply inactive

-- ask Dear colleague, could you share the recorded outcome for CCCCOc1nc2c(C)cccc2cc1C1CNC(=O)c2ccccc2N1 (stereo unspecified) when you have a moment?
-- reply inactive

-- ask Dear colleague, could you share the recorded outcome for Cc1ccc(Oc2nc3ccccc3cc2-c2nnc(Cn3c(COc4ccccc4)nc4ccccc43)o2)cc1 when you have a moment?
-- reply inactive

-- ask Dear colleague, could you share the recorded outcome for COc1ccc(OC)c(C(=O)c2oc3ccc(Br)cc3c2N)c1 when you have a moment?
-- reply inactive

-- ask Dear colleague, could you share the recorded outcome for COc1ccc(/C(=N\O)c2cc(OC)c(OC)c(OC)c2)c(OC)c1N when you have a moment?
-- reply inactive

-- ask Dear colleague, could you share the recorded outcome for C=C1C(=O)O[C@H]2[C@H](O)[C@@H](C)CCC/C(C)=C/CC[C@@]3(C)O[C@@H]3C[C@@H]12 when you have a moment?
-- reply inactive

-- ask Dear colleague, could you share the recorded outcome for CC1CCN(C(=O)CSc2nc3sc4c(c3c(=O)[nH]2)CCCC4)CC1 when you have a moment?
-- reply inactive

-- ask Dear colleague, could you share the recorded outcome for OCc1c(-c2ccccc2)nc2sccn12 when you have a moment?
-- reply inactive

-- ask Dear colleague, could you share the recorded outcome for O=C(CNC1CCCCC1)Nc1ccc(-c2nc3ccccc3s2)cc1 when you have a moment?
-- reply inactive

-- ask Dear colleague, could you share the recorded outcome for Cc1cccc(NC(=O)c2sc3nc4c(cc3c2N)CCC4)c1C when you have a moment?
-- reply inactive

-- ask Dear colleague, could you share the recorded outcome for CC(=O)/C=C/c1cc2cc(Cl)ccc2[nH]c1=O when you have a moment?
-- reply inactive

-- ask Dear colleague, could you share the recorded outcome for O=C(CCC(=O)OC1CCCC1)OC1CCCC1 when you have a moment?
-- reply inactive

-- ask Dear colleague, could you share the recorded outcome for CCN(Cc1ccc(CN(CC)C(=O)C(Br)Br)cc1)C(=O)C(Br)Br when you have a moment?
-- reply inactive
